- Tested on: murine Nurr1 receptor (Mus musculus, UniProt Q06219)
- Construct: endogenously expressing the murine Nurr1 receptor
- Sequence (Q06219 whole entry): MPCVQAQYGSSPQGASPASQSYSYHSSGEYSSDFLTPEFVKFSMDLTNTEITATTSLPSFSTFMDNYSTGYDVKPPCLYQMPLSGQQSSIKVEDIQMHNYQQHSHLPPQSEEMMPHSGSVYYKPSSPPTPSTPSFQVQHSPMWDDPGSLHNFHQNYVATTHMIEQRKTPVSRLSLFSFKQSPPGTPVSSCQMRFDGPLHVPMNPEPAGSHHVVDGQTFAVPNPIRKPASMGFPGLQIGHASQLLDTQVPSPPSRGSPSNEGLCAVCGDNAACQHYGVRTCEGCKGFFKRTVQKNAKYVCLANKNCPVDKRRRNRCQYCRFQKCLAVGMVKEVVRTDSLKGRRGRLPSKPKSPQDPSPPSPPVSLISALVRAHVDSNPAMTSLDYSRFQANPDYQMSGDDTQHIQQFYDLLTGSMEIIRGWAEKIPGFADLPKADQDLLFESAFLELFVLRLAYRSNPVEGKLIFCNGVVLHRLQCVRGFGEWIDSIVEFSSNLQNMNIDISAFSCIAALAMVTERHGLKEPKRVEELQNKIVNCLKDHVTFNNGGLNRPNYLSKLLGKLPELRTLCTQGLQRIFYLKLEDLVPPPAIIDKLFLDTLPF
- Run description: In vitro activity on N2A cells (NBRE-luciferase reporter)
- Stated conditions: N2A-8NBRE-luciferase cells, products incubated 24 hours
Endpoint label: EC50 (nM)
Field: numeric (nM). Do not append units.

Requested read-out EC50, target or system murine Nurr1 receptor (Mus musculus, UniProt Q06219), entry Cc1ccc2nc(C(=O)c3ccccc3)cn2c1.Cl [Compound 1] 0.3

Requested read-out EC50, target or system murine Nurr1 receptor (Mus musculus, UniProt Q06219), entry O=C(c1ccccc1)c1cn2cc(-c3ccccc3)ccc2n1 [Compound 6] 0.02

Requested read-out EC50, target or system murine Nurr1 receptor (Mus musculus, UniProt Q06219), entry Br.CC(C)(O)c1ccc2nc(C(=O)c3ccccc3)cn2c1 [Compound 3] 0.2
